Target: Nuclear receptor subfamily 1 group D member 1 (Homo sapiens) (UniProt P20393)
Sequence (P20393 whole entry, looked up): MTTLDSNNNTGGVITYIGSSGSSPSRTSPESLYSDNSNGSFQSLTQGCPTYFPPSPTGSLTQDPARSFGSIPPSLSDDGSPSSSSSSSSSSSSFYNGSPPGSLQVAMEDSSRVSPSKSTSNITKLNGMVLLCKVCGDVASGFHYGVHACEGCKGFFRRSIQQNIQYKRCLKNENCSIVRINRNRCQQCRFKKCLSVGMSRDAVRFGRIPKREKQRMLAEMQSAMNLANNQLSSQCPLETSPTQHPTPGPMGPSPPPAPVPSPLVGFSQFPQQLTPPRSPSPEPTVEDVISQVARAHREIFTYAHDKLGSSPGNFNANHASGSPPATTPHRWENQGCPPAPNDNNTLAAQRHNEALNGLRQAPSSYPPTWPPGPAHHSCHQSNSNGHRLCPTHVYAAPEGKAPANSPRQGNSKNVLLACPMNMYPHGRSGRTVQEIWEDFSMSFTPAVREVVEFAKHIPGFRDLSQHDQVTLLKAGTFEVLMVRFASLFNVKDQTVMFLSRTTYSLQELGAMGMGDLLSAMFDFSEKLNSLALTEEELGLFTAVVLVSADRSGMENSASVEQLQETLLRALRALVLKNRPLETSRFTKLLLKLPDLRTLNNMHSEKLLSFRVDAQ
Test: modulators of Rev-erb alpha DNA binding, primary screen, biochemical, FITC-DNA, fluorescence polarization, uHTS (AID 1259318);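 further: 0% = DMSO wells with 35 nM protein and 100% = DMSO wells with 750 nM protein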
Settings: Rev-erbα–FITC-DNA binding, 90 min, at 10 µM, stronger effect = higher value
Among all 370,000 compounds or so, about 3,000 (0.81%) were called active. The full list was thinned out, with actives kept by preference.
Property Label: activity (%)
Give the number; % is assumed, so skip it.

Nuclear receptor subfamily 1 group D member 1 (Homo sapiens) (UniProt P20393) / activity / CC(=O)c1c(N)n(C)c(=O)n(C)c1=O : value?
5.4

Kindly state the measured activity obtained for Cc1cc(C(F)(F)F)nc(SCC(=O)Nc2nccs2)n1 with Nuclear receptor subfamily 1 group D member 1 (Homo sapiens) (UniProt P20393).
-6.74

Checklist item: activity tested on Nuclear receptor subfamily 1 group D member 1 (Homo sapiens) (UniProt P20393), entry O=C(CSc1ncnc2c1oc1ccccc12)NC1CCCC1 , value?
-1.38

Please provide the recorded activity for CCN(CC)C(=O)CS(=O)CC(=O)Nc1cc(OCCOC)c(Cl)cc1Cl (stereo not drawn) , tested on Nuclear receptor subfamily 1 group D member 1 (Homo sapiens) (UniProt P20393).
-6.56

Notebook: pull reported activity for Nuclear receptor subfamily 1 group D member 1 (Homo sapiens) (UniProt P20393), entry C=C(C)C(=O)O[C@H]1C/C(C)=C\C(=O)/C=C(\C)[C@H](O)[C@@H]2OC(=O)C(=C)[C@@H]21
-13.3

# returns recorded activity (system: Nuclear receptor subfamily 1 group D member 1 (Homo sapiens) (UniProt P20393)) for CC1(Cc2cccc(C#N)c2)C(=O)Nc2ccc(-c3cccc(C(F)(F)F)c3)cc21 (stereo not drawn)
0.78

What value of activity on Nuclear receptor subfamily 1 group D member 1 (Homo sapiens) (UniProt P20393) does Cc1cc(C)c(C(=O)CSc2nc(C)cc(=O)[nH]2)c(C)c1 have?
-1.57

activity of COc1ccc(NC(=O)c2sc(=O)n(Cc3ccc(S(=O)(=O)N(C)C)cc3)c2C)cc1 on Nuclear receptor subfamily 1 group D member 1 (Homo sapiens) (UniProt P20393)?
4.54

Entry CCCc1nc2c(C)cc(-c3nc4ccccc4n3C)cc2n1Cc1ccc(-c2ccccc2C(=O)O)cc1 , system Nuclear receptor subfamily 1 group D member 1 (Homo sapiens) (UniProt P20393): what activity was measured?
3.42

Enter reported activity observed with Nuclear receptor subfamily 1 group D member 1 (Homo sapiens) (UniProt P20393) for CCN(CC)S(=O)(=O)c1ccc(OC(C)C)c(N)c1
-2.29

What value of activity on Nuclear receptor subfamily 1 group D member 1 (Homo sapiens) (UniProt P20393) does O=C(NC1CCC1)c1ccc(C#Cc2cccc(F)c2)c[n+]1[O-] have?
1.34

Under Nuclear receptor subfamily 1 group D member 1 (Homo sapiens) (UniProt P20393): activity value of Cc1[nH]c2ccccc2c1SCC(=O)Nc1nccs1 ?
4.6

Any idea what activity came out for CCCCCCCCCCCCCCCC(=O)O[C@@H]1[C@@H](O)[C@@H](O)C([C@H](NC(=O)[C@@H]2C[C@@H](CCC)CN2C)[C@H](C)Cl)O[C@@H]1SC (stereo partly drawn) on Nuclear receptor subfamily 1 group D member 1 (Homo sapiens) (UniProt P20393)?
-0.49
